# subjectOfTest: T1, κ1-78/δ70-372 chimeric opioid receptor (mouse)
# T1 construct: Expressed in COS-7 cells, membranes assayed
# T1 chain: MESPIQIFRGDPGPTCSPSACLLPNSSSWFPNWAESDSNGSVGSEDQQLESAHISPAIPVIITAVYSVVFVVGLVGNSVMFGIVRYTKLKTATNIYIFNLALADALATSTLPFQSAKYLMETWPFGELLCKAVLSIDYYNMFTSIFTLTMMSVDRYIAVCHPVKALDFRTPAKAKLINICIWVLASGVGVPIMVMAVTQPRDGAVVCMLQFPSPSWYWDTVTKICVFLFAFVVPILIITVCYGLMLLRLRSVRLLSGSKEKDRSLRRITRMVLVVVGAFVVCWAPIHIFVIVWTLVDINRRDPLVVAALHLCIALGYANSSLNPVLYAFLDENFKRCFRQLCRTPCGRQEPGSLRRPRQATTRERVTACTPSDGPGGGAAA
# procedureText: competition vs [3H]naloxone, COS-7 membranes

- binder: "YGGFLRRIRPKLKWDNQ (peptide, UniProt P01213 207-223, looked up) [dynorphin (form not specified)]"
  units: "nM"
  IC50: 40
